# key: entry, value: binding signal
# assay.target: GST-SBP-SLBP (stem-loop binding protein) (Homo sapiens, UniProt Q14493 1-270)
# experiment.summary: targeted RNA Bind-n-Seq; RBNS binding buffer: 25 mM Tris pH 7.5, 150 mM KCl, 3 mM MgCl2, 0.1% Tween, 0.5 mg/mL BSA, 1 mM DTT; 27 nM protein, 750 pM RNA pool; temperature not stated; high values mean tight binding
# condition.context: protein: recombinant; tags: N-terminal GST and SBP (pGEX6P1-SBP); structured_RNA
Over roughly 11,000 sequences, “log2 fold change” has its median near 0.00022; the highest 2% begin near 0.34. The list shows a part of the results.
reported.endpoint: binding signal (log2 fold change)

INSERT INTO measurements (seq_string, unit_abbrev, result_number) VALUES
  ('GGUCACGUCUCAAUCAACUCAUUUUCCAGGGAAACCCCUGGCUAAUUCAACAGCUCGCAGUCAAG', 'log2 fold change', 0.348),
  ('GGUCACGUCUCAAUCAACUCACAAGAGGGGGGGAAAACCCCUUUGCCCUCAUCCUCAACAGCUCGCAGUCAAG', 'log2 fold change', 0.34),
  ('GGUCACGUCUCAAUCAACUCAAAAGAGGGGGGGAAAACCCCUUUGCCCUCACAAUCAACAGCUCGCAGUCAAG', 'log2 fold change', 0.31),
  ('GGUCACGUCUCAAUCAACUCUCUAGAGGGGGGGAAAACCCCUUUGCCCUCGAAAUCAACAGCUCGCAGUCAAG', 'log2 fold change', 0.342),
  ('GGUCACGUCUCAAUCAACUCUCAAGAGGGGGGGAAAACCCCUUUGCCCUCGUAAUCAACAGCUCGCAGUCAAG', 'log2 fold change', 0.452),
  ('GGUCACGUCUCAAUCAACUCUCUCGAGGGGGGGAAAACCCCUUUGCCCUCAAAAUCAACAGCUCGCAGUCAAG', 'log2 fold change', 0.354),
  ('GGUCACGUCUCAAUCAACUCUCACGAGGGGGGGAAAACCCCUUUGCCCUCACUUUCAACAGCUCGCAGUCAAG', 'log2 fold change', 0.351),
  ('GGUCACGUCUCAAUCAACUCAACUUCCAGGGAAAACCCUGGUAUACUCAACAGCUCGCAGUCAAG', 'log2 fold change', 0.373);

FYI, the data here is from paper PMC5892938.
